# ASSAYED SYSTEM: wild-type human cardiac sodium channel, hNav1.5 (Homo sapiens)
# PROTOCOL DESCRIPTION: Late INa screening assay (late sodium current, PatchXpress whole cell patch clamp)
# Type: cell-based
# TEST SETTINGS: compound at 10 μM; read-out: Late INa % blk
Quick rule: inhibition at 10 µM of at least 30% means yes (1), below that means no (0).

>  <COMPOUND>
CC1=C(C(=O)OC(C)C)C(c2cc(-c3ccccc3)cs2)C2=C(CC(C)(C)CC2=O)N1 (centres unmarked) [PT-159]

>  <ASSAYED SYSTEM>
wild-type human cardiac sodium channel, hNav1.5 (Homo sapiens)

>  <LABEL VALUE>
yes (1)

$$$$
>  <COMPOUND>
CC1=C(C(=O)OCc2ccccc2)C(c2ccc(C(F)(F)F)cc2)n2nnnc2N1 (centres unmarked) [PT-358]

>  <ASSAYED SYSTEM>
wild-type human cardiac sodium channel, hNav1.5 (Homo sapiens)

>  <LABEL VALUE>
no (0)

$$$$
>  <COMPOUND>
CC1=C(C(=O)OCc2ccccc2)C(c2ccc(N(C)C)cc2[N+](=O)[O-])n2nnnc2N1 (centres unmarked) [PT-409]

>  <ASSAYED SYSTEM>
wild-type human cardiac sodium channel, hNav1.5 (Homo sapiens)

>  <LABEL VALUE>
yes (1)

$$$$
>  <COMPOUND>
CC1=C(C(=O)OCc2ccccc2)C(c2ccccc2-c2ccc(S(C)(=O)=O)cc2)n2nnnc2N1 (centres unmarked) [PT-354]

>  <ASSAYED SYSTEM>
wild-type human cardiac sodium channel, hNav1.5 (Homo sapiens)

>  <LABEL VALUE>
yes (1)

$$$$
>  <COMPOUND>
CCOC(=O)C1=C(C)NC(C)=C(C(=O)OCC)C1c1ccc(C(=O)O)s1 [PT-112]

>  <ASSAYED SYSTEM>
wild-type human cardiac sodium channel, hNav1.5 (Homo sapiens)

>  <LABEL VALUE>
no (0)

$$$$
>  <COMPOUND>
CCOC(=O)C1=C(C)Nc2nnnn2C1c1cccc(Oc2ccccc2)c1 (centres unmarked) [PT-464]

>  <ASSAYED SYSTEM>
wild-type human cardiac sodium channel, hNav1.5 (Homo sapiens)

>  <LABEL VALUE>
yes (1)

$$$$
>  <COMPOUND>
CCOC(=O)C1=C(C)Nc2nnnn2C1c1ccccc1Oc1ccc(C(=O)OCC)cc1 (centres unmarked) [PT-483]

>  <ASSAYED SYSTEM>
wild-type human cardiac sodium channel, hNav1.5 (Homo sapiens)

>  <LABEL VALUE>
yes (1)

$$$$
>  <COMPOUND>
COc1ccc(C2C(C(=O)OCc3ccccc3)=C(C)Nc3nnnn32)c(OCc2ccccc2)c1 (centres unmarked) [PT-380]

>  <ASSAYED SYSTEM>
wild-type human cardiac sodium channel, hNav1.5 (Homo sapiens)

>  <LABEL VALUE>
yes (1)

$$$$

* * *

# ASSAYED SYSTEM: wild-type human cardiac sodium channel, hNav1.5 (Homo sapiens, UniProt Q14524)
# Sequence (Q14524 whole entry): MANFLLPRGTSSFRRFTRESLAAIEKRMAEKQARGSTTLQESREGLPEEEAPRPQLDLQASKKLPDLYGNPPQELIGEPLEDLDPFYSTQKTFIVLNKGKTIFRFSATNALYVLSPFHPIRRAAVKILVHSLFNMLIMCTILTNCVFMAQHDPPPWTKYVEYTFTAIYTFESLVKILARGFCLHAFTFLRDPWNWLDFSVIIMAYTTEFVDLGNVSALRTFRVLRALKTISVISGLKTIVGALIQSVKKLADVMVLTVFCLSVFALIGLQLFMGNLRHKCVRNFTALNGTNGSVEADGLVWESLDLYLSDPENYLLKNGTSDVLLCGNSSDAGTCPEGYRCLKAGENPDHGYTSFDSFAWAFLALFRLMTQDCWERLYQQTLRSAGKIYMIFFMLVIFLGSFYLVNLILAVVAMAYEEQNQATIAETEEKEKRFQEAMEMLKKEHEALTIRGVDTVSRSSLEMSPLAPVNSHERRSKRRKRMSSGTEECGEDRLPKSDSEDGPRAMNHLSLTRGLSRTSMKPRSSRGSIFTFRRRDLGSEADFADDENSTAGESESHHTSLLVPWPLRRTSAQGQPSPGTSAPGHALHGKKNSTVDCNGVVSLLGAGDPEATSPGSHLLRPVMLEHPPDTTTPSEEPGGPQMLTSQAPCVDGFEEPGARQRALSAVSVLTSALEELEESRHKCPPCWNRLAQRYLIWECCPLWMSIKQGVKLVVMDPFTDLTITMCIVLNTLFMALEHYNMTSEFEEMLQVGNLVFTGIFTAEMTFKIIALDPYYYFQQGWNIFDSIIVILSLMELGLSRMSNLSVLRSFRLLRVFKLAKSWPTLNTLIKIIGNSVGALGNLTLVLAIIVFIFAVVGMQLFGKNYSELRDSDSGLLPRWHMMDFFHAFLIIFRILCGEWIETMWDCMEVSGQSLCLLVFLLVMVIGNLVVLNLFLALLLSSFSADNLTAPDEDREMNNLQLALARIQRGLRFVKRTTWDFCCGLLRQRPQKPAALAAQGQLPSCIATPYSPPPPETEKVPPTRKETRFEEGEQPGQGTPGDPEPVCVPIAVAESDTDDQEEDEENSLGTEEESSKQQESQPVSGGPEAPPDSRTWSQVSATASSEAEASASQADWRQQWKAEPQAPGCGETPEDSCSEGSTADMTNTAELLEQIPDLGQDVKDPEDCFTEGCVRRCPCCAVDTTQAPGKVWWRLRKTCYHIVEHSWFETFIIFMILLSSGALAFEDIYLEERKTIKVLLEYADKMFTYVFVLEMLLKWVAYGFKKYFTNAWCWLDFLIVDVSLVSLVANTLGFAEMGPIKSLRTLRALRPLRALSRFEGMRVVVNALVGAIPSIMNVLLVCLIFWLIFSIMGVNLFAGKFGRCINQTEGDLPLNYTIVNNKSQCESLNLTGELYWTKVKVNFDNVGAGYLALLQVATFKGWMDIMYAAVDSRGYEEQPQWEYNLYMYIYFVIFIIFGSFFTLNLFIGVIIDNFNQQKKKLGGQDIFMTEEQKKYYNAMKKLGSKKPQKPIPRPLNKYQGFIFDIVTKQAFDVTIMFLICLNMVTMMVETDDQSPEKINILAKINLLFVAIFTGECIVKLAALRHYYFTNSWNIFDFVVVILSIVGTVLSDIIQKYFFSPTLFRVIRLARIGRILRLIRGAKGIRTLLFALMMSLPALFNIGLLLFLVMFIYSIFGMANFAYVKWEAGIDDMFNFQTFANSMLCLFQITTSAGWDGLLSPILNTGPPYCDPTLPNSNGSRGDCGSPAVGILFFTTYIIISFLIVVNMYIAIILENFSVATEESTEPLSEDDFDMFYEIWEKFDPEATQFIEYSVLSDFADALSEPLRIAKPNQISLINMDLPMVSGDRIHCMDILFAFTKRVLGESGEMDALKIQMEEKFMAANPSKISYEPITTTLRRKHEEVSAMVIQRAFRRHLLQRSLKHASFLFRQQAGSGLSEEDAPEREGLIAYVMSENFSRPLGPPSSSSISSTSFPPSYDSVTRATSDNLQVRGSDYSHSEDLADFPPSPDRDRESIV
# PROTOCOL DESCRIPTION: Late INa screening assay (late sodium current, PatchXpress whole cell patch clamp)
# Format: cell-based
# TEST SETTINGS: compound at 10 μM; read-out: Late INa % blk
MEASURE NAME: inhibition at 10 µM (%)

>  <COMPOUND>
CC1=C(C(=O)OCc2ccccc2)C(c2ccc3ccccc3c2)C2=C(CCCC2=O)N1 (stereo not drawn) [PT-320]

>  <ASSAYED SYSTEM>
wild-type human cardiac sodium channel, hNav1.5 (Homo sapiens, UniProt Q14524)

>  <OBSERVED VALUE>
51

$$$$
>  <COMPOUND>
CC1=C(C(=O)OCc2ccccc2)C(c2cc3ccccc3s2)n2nnnc2N1 (stereo not drawn) [PT-043]

>  <ASSAYED SYSTEM>
wild-type human cardiac sodium channel, hNav1.5 (Homo sapiens, UniProt Q14524)

>  <OBSERVED VALUE>
53.8

$$$$
>  <COMPOUND>
CCOC(=O)C1=C(C)Nc2nnnn2C1c1ccccc1Oc1ccc(C#N)cc1 (stereo not drawn) [PT-485]

>  <ASSAYED SYSTEM>
wild-type human cardiac sodium channel, hNav1.5 (Homo sapiens, UniProt Q14524)

>  <OBSERVED VALUE>
5.2

$$$$
>  <COMPOUND>
CCOC(=O)C1=C(C)NC(C)=C(C(=O)OCC)C1c1cc2ccccc2o1 [PT-122]

>  <ASSAYED SYSTEM>
wild-type human cardiac sodium channel, hNav1.5 (Homo sapiens, UniProt Q14524)

>  <OBSERVED VALUE>
80.3

$$$$
>  <COMPOUND>
CC1=C(C(=O)OCc2ccccc2)C(c2sccc2B(O)O)n2nnnc2N1 (stereo not drawn) [PT-256]

>  <ASSAYED SYSTEM>
wild-type human cardiac sodium channel, hNav1.5 (Homo sapiens, UniProt Q14524)

>  <OBSERVED VALUE>
25.7

$$$$
>  <COMPOUND>
CC1=C(C(=O)OCc2ccccc2)C(c2nccs2)c2cn[nH]c2N1 (stereo not drawn) [PT-369]

>  <ASSAYED SYSTEM>
wild-type human cardiac sodium channel, hNav1.5 (Homo sapiens, UniProt Q14524)

>  <OBSERVED VALUE>
47.3

$$$$
>  <COMPOUND>
CCOC(=O)C1=C(C)NC(C)=C(C(=O)OCC)C1c1ccccc1-c1ccccc1 [PT-438]

>  <ASSAYED SYSTEM>
wild-type human cardiac sodium channel, hNav1.5 (Homo sapiens, UniProt Q14524)

>  <OBSERVED VALUE>
20.9

$$$$
>  <COMPOUND>
CC1=C(C(=O)O[C@@H](C)c2ccccc2)[C@@H](c2cccc3ccccc23)n2nnnc2N1 [PT-050]

>  <ASSAYED SYSTEM>
wild-type human cardiac sodium channel, hNav1.5 (Homo sapiens, UniProt Q14524)

>  <OBSERVED VALUE>
94

$$$$
>  <COMPOUND>
CC1=C(C(=O)OC(C)C)C(c2cccc3ccccc23)C(C(=O)OC(C)C)=C(C)N1 [PT-123]

>  <ASSAYED SYSTEM>
wild-type human cardiac sodium channel, hNav1.5 (Homo sapiens, UniProt Q14524)

>  <OBSERVED VALUE>
86.9

$$$$
